Target: α1A-adrenoceptor (Rattus norvegicus, UniProt P43140)
Construct: from tissue; host or cells: rat submaxillary gland membranes
Sequence (P43140 1-466): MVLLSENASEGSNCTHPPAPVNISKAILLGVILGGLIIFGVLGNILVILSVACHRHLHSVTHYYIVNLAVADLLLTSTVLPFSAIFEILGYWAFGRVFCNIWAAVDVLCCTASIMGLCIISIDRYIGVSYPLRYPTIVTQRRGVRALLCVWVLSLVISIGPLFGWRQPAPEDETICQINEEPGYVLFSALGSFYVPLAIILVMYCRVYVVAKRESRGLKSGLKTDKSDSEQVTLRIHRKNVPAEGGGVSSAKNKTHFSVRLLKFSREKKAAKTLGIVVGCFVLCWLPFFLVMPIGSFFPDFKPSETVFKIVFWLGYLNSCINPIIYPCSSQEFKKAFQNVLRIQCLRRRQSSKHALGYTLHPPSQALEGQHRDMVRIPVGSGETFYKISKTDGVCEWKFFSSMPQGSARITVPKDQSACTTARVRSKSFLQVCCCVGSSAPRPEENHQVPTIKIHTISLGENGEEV
Assay: Receptor binding assay, [3H]prazosin, rat submaxillary membranes
Conditions: rat submaxillary membranes, 0.5 nM [3H]prazosin; read-out: RBA (Ki nM) α1A
Reported property: Ki (nM)

Record smiles	Unit descriptor	Censor symbol	Numeric value
O=C1CCC(=O)N1CCCN1CCN(c2ccc(F)cc2)CC1	nM	>	2500
O=C1CCCC(=O)N1CCCN1CCN(c2ccc(F)cc2)CC1	nM	=	67
COc1cccc(N2CCN(CCCN3C(=O)CCCC3=O)CC2)c1	nM	=	2170
O=C1CCC(=O)N1CCCN1CCN(c2ncccn2)CC1	nM	=	1140
Cc1ccc(N2CCN(CCCN3C(=O)CCC3=O)CC2)cc1C	nM	=	450

###

Target: α1A-adrenoceptor (Rattus norvegicus)
Construct: from tissue; host or cells: rat submaxillary gland membranes
Assay: Receptor binding assay, [3H]prazosin, rat submaxillary membranes
Conditions: rat submaxillary membranes, 0.5 nM [3H]prazosin; read-out: RBA (Ki nM) α1A
This section presents compounds with their documented Ki values.
Reported property: Ki (nM)

Record smiles	System under test	Reported property	Unit descriptor	Numeric value
O=C1CCC(=O)N1CCCN1CCC(c2ccccc2)CC1	α1A-adrenoceptor (Rattus norvegicus)	Ki	nM	1300
COc1ccccc1N1CCN(CCCN2C(=O)CCCC2=O)CC1	α1A-adrenoceptor (Rattus norvegicus)	Ki	nM	3
O=C1CCCC(=O)N1CCCN1CCN(c2cccc(Cl)c2)CC1	α1A-adrenoceptor (Rattus norvegicus)	Ki	nM	22
COc1ccccc1N1CCN(CCCN2C(=O)CCC2=O)CC1	α1A-adrenoceptor (Rattus norvegicus)	Ki	nM	19

###

This section presents molecules with their documented Ki values.
Molecular target: α1B-adrenoceptor (Rattus norvegicus)
Construct: from tissue; host or cells: rat liver membranes
Sequence (P15823 1-515): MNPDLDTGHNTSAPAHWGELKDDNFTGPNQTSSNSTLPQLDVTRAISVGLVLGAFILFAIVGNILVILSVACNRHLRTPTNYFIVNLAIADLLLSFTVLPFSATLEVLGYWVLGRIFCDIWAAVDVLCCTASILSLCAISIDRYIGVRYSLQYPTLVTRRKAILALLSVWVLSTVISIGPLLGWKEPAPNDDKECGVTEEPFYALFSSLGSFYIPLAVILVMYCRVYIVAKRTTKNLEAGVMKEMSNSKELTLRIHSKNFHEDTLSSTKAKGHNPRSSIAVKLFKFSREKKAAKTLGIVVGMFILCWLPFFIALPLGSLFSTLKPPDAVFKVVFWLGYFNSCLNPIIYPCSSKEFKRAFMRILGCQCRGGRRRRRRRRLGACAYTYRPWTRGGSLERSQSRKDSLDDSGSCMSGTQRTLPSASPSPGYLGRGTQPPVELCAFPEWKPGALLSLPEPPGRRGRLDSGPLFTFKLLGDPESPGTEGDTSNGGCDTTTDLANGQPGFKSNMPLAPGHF
Experiment: Receptor binding assay, [3H]prazosin, rat liver membranes
Details: rat liver membranes, 0.5 nM [3H]prazosin; read-out: RBA (Ki nM) α1B

Molecule	System under test	Censor symbol	Ki, nM
COc1ccccc1N1CCN(CCN2C(=O)CCC2=O)CC1 [Compound 10]	α1B-adrenoceptor (Rattus norvegicus)	=	2350
COc1ccccc1N1CCN(CCCCN2C(=O)CCCC2=O)CC1 [Compound 25]	α1B-adrenoceptor (Rattus norvegicus)	=	7.5
O=C1CCCC(=O)N1CCCN1CCN(c2ccccn2)CC1 [Compound 19]	α1B-adrenoceptor (Rattus norvegicus)	>	2500
COc1ccccc1N1CCN(CCCN2C(=O)CC(c3ccccc3)C2=O)CC1 (centres unmarked) [Compound 26]	α1B-adrenoceptor (Rattus norvegicus)	=	600
O=C1CCCC(=O)N1CCCN1CCN(c2ncccn2)CC1 [Compound 22]	α1B-adrenoceptor (Rattus norvegicus)	>	2500
O=C1CCC(=O)N1CCCN1CCN(c2cccc(C(F)(F)F)c2)CC1 [Compound 3]	α1B-adrenoceptor (Rattus norvegicus)	=	1000
O=C1CCC(=O)N1CCCN1CCN(c2cccc(Cl)c2)CC1 [Compound 5]	α1B-adrenoceptor (Rattus norvegicus)	=	175
COc1ccccc1N1CCN(CCCCN2C(=O)CCC2=O)CC1 [Compound 9]	α1B-adrenoceptor (Rattus norvegicus)	=	35
O=C1CCC(=O)N1CCCN1CCN(c2ncccn2)CC1 [Compound 6]	α1B-adrenoceptor (Rattus norvegicus)	>	2500
Cc1ccc(N2CCN(CCCN3C(=O)CCCC3=O)CC2)cc1C [Compound 21]	α1B-adrenoceptor (Rattus norvegicus)	=	176
COc1ccccc1N1CCN(CCCN2C(=O)CCCC2=O)CC1 [Compound 13]	α1B-adrenoceptor (Rattus norvegicus)	=	168
O=C1CCCC(=O)N1CCCN1CCN(c2ccc(Cl)cc2)CC1 [Compound 15]	α1B-adrenoceptor (Rattus norvegicus)	=	201
Cc1ccc(N2CCN(CCCN3C(=O)CCC3=O)CC2)cc1C [Compound 7]	α1B-adrenoceptor (Rattus norvegicus)	=	282
O=C1CCC(=O)N1CCCN1CCN(c2ccc(F)cc2)CC1 [Compound 1]	α1B-adrenoceptor (Rattus norvegicus)	=	1000
O=C1CCCC(=O)N1CCCN1CCN(c2ccccc2F)CC1 [Compound 17]	α1B-adrenoceptor (Rattus norvegicus)	=	396
O=C1CCCC(=O)N1CCCN1CCN(c2cccc(C(F)(F)F)c2)CC1 [Compound 16]	α1B-adrenoceptor (Rattus norvegicus)	=	765
COc1ccc(N2CCN(CCCN3C(=O)CCC3=O)CC2)cc1 [Compound 12]	α1B-adrenoceptor (Rattus norvegicus)	>	2500
O=C1CCCC(=O)N1CCCN1CCN(c2ccc(F)cc2)CC1 [Compound 14]	α1B-adrenoceptor (Rattus norvegicus)	=	192
COc1cccc(N2CCN(CCCN3C(=O)CCCC3=O)CC2)c1 [Compound 23]	α1B-adrenoceptor (Rattus norvegicus)	=	940
O=C1CCC(=O)N1CCCN1CCN(c2ccccc2)CC1 [Compound 8]	α1B-adrenoceptor (Rattus norvegicus)	=	590

###

Biological target: α1B-adrenoceptor (spleen) (Rattus norvegicus, UniProt P15823)
Construct: Aorta, prostate and spleen tissues were isolated from urethane anaesthetized (1.5 gm/kg) male wistar rats; from tissue; host or cells: isolated spleen of male Wistar rats
Assay: In vitro functional assay, phenylephrine-induced contraction of isolated spleen
Assay type: cell-based
Details: rat spleen, phenylephrine; read-out: In Vitro Functional Assay (pKB) α1B (converted)
Reported property: Kb (nM)

Record smiles	System under test	Numeric value
COc1ccccc1N1CCN(CCCN2C(=O)CCCC2=O)CC1	α1B-adrenoceptor (spleen) (Rattus norvegicus, UniProt P15823)	10
O=C1CCCC(=O)N1CCCN1CCN(c2ccc(Cl)cc2)CC1	α1B-adrenoceptor (spleen) (Rattus norvegicus, UniProt P15823)	1000
O=C1CCC(=O)N1CCCN1CCN(c2cccc(Cl)c2)CC1	α1B-adrenoceptor (spleen) (Rattus norvegicus, UniProt P15823)	5010
COc1ccccc1N1CCN(CCN2C(=O)CCC2=O)CC1	α1B-adrenoceptor (spleen) (Rattus norvegicus, UniProt P15823)	200
COc1ccccc1N1CCN(CCCCN2C(=O)CCC2=O)CC1	α1B-adrenoceptor (spleen) (Rattus norvegicus, UniProt P15823)	10
O=C1CCCC(=O)N1CCCN1CCN(c2ccc(F)cc2)CC1	α1B-adrenoceptor (spleen) (Rattus norvegicus, UniProt P15823)	39.8

###

Biological target: α1A-adrenoceptor (Rattus norvegicus)
Construct: from tissue; host or cells: rat submaxillary gland membranes
Assay: Receptor binding assay, [3H]prazosin, rat submaxillary membranes
Settings: rat submaxillary membranes, 0.5 nM [3H]prazosin; read-out: RBA (Ki nM) α1A
This section presents molecules with their documented log10(Ki) values.
Reported property: log10(Ki) (log10 of the value in nM)

Molecule	log10(Ki)
COc1ccccc1N1CCN(CCCCN2C(=O)CCCC2=O)CC1	0.20
Cc1ccc(N2CCN(CCCN3C(=O)CCCC3=O)CC2)cc1C	3.33
O=C1CCC(=O)N1CCCN1CCN(c2cccc(Cl)c2)CC1	2.03
O=C1CCCC(=O)N1CCCN1CCN(c2ccc(Cl)cc2)CC1	2.72
Cc1ccccc1N1CCN(CCCN2C(=O)CCCC2=O)CC1	0.95
COc1ccccc1N1CCN(CCCCN2C(=O)CCC2=O)CC1	0.00
COc1ccccc1N1CCN(CCCN2C(=O)CC(c3ccccc3)C2=O)CC1 (stereo not shown)	1.48
